Values from the Immune Epitope Database (IEDB)

- Assayed System: HLA-C*05:01
- Test Protocol: IEDB peptide-MHC binding, purified MHC/direct/fluorescence; filed as Kd, often an IC50 or EC50 that approximates it; bounds were set here for any values at or beyond the usual limits of such assays
- Run Conditions: source organism: Orthohantavirus sinnombreense
Parameter: Kd

For `YTFTSLFSL` , write its Kd.
≥ 20 µM

###

- Assayed System: HLA-B*15:01
- Test Protocol: IEDB peptide-MHC binding, purified MHC/direct/fluorescence; filed as Kd, often an IC50 or EC50 that approximates it; bounds were set here for any values at or beyond the usual limits of such assays
- Run Conditions: source organism: Pseudomonas aeruginosa
Parameter: Kd (nM)
// return numeric value only (unit: nM, not printed)

Please give measured Kd of the following entry: `GLGGDASAY`
300

###

Below: a set of entries, each annotated with reported Kd.
- Assayed System: HLA-A*26:01
- Test Protocol: IEDB peptide-MHC binding, purified MHC/competitive/radioactivity; filed as Kd, often an IC50 or EC50 that approximates it; bounds were set here for any values at or beyond the usual limits of such assays
- Run Conditions: source organism: Dengue virus 1 Brazil/97-11/1997
All answers are understood in nM, so give the number only.

MTTEDMLSVW    2090

Would you kindly look at the next entry?
Quote Kd reported for `HTIENTTANI` please.
2070

###

- Assayed System: HLA-B*58:01
- Test Protocol: IEDB peptide-MHC binding, purified MHC/direct/fluorescence; filed as Kd, often an IC50 or EC50 that approximates it; bounds were set here for any values at or beyond the usual limits of such assays
- Run Conditions: source organism: Influenza A virus (A/equine/Massachussetts/213/2003(H3N8))
pKd: −log10 of the molar value.
Parameter: pKd

Please give measured pKd of the following entry: `ILKGKFQTA`
≤ 4.70

###

- Assayed System: HLA-A*32:07
- Test Protocol: IEDB peptide-MHC binding, purified MHC/competitive/fluorescence; filed as Kd, often an IC50 or EC50 that approximates it; bounds were set here for any values at or beyond the usual limits of such assays
- Run Conditions: source organism: Burkholderia mallei SAVP1
Parameter: pKd
Please express pKd as -log10 of the molar concentration.

Note pKd for the sequence shown: `RQYERYTAL`
8.12

###

- Assayed System: HLA-B*08:01
- Test Protocol: IEDB peptide-MHC binding, purified MHC/competitive/fluorescence; filed as Kd, often an IC50 or EC50 that approximates it; bounds were set here for any values at or beyond the usual limits of such assays
- Run Conditions: source organism: Influenza A virus (A/Tokyo/1566/98(H3N2))
Parameter: Kd

Quote HLA-B*08:01 Kd for entry `QLKYKYPAL` .
67.9 nM

###

- Assayed System: HLA-B*07:02
- Test Protocol: IEDB peptide-MHC binding, purified MHC/direct/fluorescence; filed as Kd, often an IC50 or EC50 that approximates it; bounds were set here for any values at or beyond the usual limits of such assays
- Run Conditions: source organism: Vibrio cholerae
Property: pKd; scope: individual sequences
Notebook: values listed as pKd are -log10 of the concentration (mol/L).

FPRSAERAG    6.70

# evaluate next
Annotate the sequence `FPLTQRDVL` with its measured pKd.
7.34

###

- Assayed System: HLA-B*18:01
- Test Protocol: IEDB peptide-MHC binding, purified MHC/competitive/radioactivity; filed as Kd, often an IC50 or EC50 that approximates it; bounds were set here for any values at or beyond the usual limits of such assays
- Run Conditions: source organism: Mammarenavirus lassaense
Parameter: Kd

Provide only the value of recorded Kd for `KENLYIKSI`
≥ 28.8 µM

###

- Assayed System: HLA-C*08:02
- Test Protocol: IEDB peptide-MHC binding, purified MHC/direct/fluorescence; filed as Kd, often an IC50 or EC50 that approximates it; bounds were set here for any values at or beyond the usual limits of such assays
- Run Conditions: source organism: dengue virus type 1
pKd: −log10 of the molar value.
Parameter: pKd

# return pKd of `YMPSVVETL` (system: HLA-C*08:02)
≤ 4.70

###

- Assayed System: HLA-A*02:01
- Test Protocol: IEDB peptide-MHC binding, purified MHC/direct/fluorescence; filed as Kd, often an IC50 or EC50 that approximates it; bounds were set here for any values at or beyond the usual limits of such assays
- Run Conditions: source organism: Homo sapiens
Listed below: pKd values for each entry.
A value of pKd is the negative decimal logarithm of a concentration given in moles per litre.

FHMDPSGTF    4.84

Please look at this sequence and report its pKd: `FQWHEAMFL`
9.70

###

- Assayed System: HLA-A*02:01
- Test Protocol: IEDB peptide-MHC binding, purified MHC/direct/fluorescence; filed as Kd, often an IC50 or EC50 that approximates it; bounds were set here for any values at or beyond the usual limits of such assays
- Run Conditions: source organism: Yersinia pestis
Parameter: Kd

Hello, please tell me recorded Kd for this one: `VPRVHNQPQ`
≥ 20 µM

###

- Assayed System: HLA-A*03:01
- Test Protocol: IEDB peptide-MHC binding, purified MHC/direct/fluorescence; filed as Kd, often an IC50 or EC50 that approximates it; bounds were set here for any values at or beyond the usual limits of such assays
- Run Conditions: source organism: Vibrio cholerae
pKd: −log10 of the molar value.
Consider the following sequences and their measured pKd readings.

AYLLQHLDL    ≤ 4.70
EIFPNIKIY    ≤ 4.70
FPLTQRDVL    ≤ 4.70

Now turn to the next sequence.
Provide only the value of recorded pKd for `FPRSAERAG`
≤ 4.70

###

- Assayed System: HLA-B*44:02
- Test Protocol: IEDB peptide-MHC binding, purified MHC/competitive/radioactivity; filed as Kd, often an IC50 or EC50 that approximates it; bounds were set here for any values at or beyond the usual limits of such assays
- Run Conditions: source organism: SARS coronavirus Tor2
pKd values for the sequences below.
pKd here: minus log base 10 of the concentration, concentration in moles per litre.

# annotated cases, reported pKd shown
FERDISNVPF    6.24
EEVAIILASF    7.11
NEKVAGFAKF    7.42
SEAFLIGANY    8.07

Return pKd (reported value) for this sequence: `SEFSSLPSYA`
6.46

Fill in reported pKd for this entry: `SELRPDTRY`
6.28

Fill in pKd for record `MELPTGVHA`
5.11

Give the value of pKd reported for the following: `MEVQSLAMST`
5.14

Return pKd (reported value) for this sequence: `CELYHYQECV`
5.11

###

- Assayed System: HLA-B*57:01
- Test Protocol: IEDB peptide-MHC binding, purified MHC/direct/fluorescence; filed as Kd, often an IC50 or EC50 that approximates it; bounds were set here for any values at or beyond the usual limits of such assays
- Run Conditions: source organism: Lake Victoria marburgvirus - Popp
Parameter: Kd (nM)
Report only the number, with the unit nM understood.

GET Kd where system = HLA-B*57:01 and item = `KSPDVHEDF`
566

###

- Assayed System: HLA-A*02:12
- Test Protocol: IEDB peptide-MHC binding, purified MHC/direct/fluorescence; filed as Kd, often an IC50 or EC50 that approximates it; bounds were set here for any values at or beyond the usual limits of such assays
- Run Conditions: source organism: Encephalitozoon cuniculi GB-M1
Parameter: Kd

Return value of Kd for input `FSFFMNENF` , no commentary.
≥ 20 µM

###

# pKd per record follows
- Assayed System: HLA-A*01:01
- Test Protocol: IEDB peptide-MHC binding, purified MHC/competitive/radioactivity; filed as Kd, often an IC50 or EC50 that approximates it; bounds were set here for any values at or beyond the usual limits of such assays
- Run Conditions: source organism: Mammarenavirus choriomeningitidis
# pKd: negative log10 of molar concentration; output just the value

Consider the sequence `WCSQTDYQYL` . State its measured pKd.
4.88

Item `WCSQTDYQY` : provide pKd
5.94

###

- Assayed System: HLA-B*08:01
- Test Protocol: IEDB peptide-MHC binding, purified MHC/direct/fluorescence; filed as Kd, often an IC50 or EC50 that approximates it; bounds were set here for any values at or beyond the usual limits of such assays
- Run Conditions: source organism: Giardia lamblia ATCC 50803
Parameter: Kd

# return Kd of `DYIYLPLLK` (system: HLA-B*08:01)
≥ 20 µM

###

- Assayed System: HLA-B*15:01
- Test Protocol: IEDB peptide-MHC binding, purified MHC/direct/fluorescence; filed as Kd, often an IC50 or EC50 that approximates it; bounds were set here for any values at or beyond the usual limits of such assays
- Run Conditions: source organism: Cryptosporidium parvum
Parameter: Kd

For the sequence `DFIGKTIGF` , report Kd.
≥ 20 µM

###

# pKd per record follows
- Assayed System: HLA-A*24:02
- Test Protocol: IEDB peptide-MHC binding, purified MHC/competitive/radioactivity; filed as Kd, often an IC50 or EC50 that approximates it; bounds were set here for any values at or beyond the usual limits of such assays
- Run Conditions: source organism: Dengue virus 4 Philippines/H241/1956
In simple prose, pKd is minus the logarithm base ten of a concentration in moles per litre.

AYMIGQTGI    7.03

Next sequence, pKd to be filled in.
Complete the entry with pKd for `EYPKTKLTDW`
6.02
